Every entry's value here was drawn from patent US4470993A.

# Assay: Acute toxicity, oral, in mice (Miller and Tainter)
# Condition label: mouse, in vivo, read-out: Acute toxicity LD 50
Observed property: LD50

Illustrative cases are given below, each with its answer.
Compound: NCC1CN(c2ccc(OCc3ccccc3)cc2)C(=O)O1 (stereo not shown)
LD50: > 2000 mg/kg

Compound: CNCC1CN(c2ccc(OCc3ccccc3)cc2)C(=O)O1 (stereo not shown)
LD50: > 2000 mg/kg

Compound: NCC1CN(c2ccc(OCC3CCCCC3)cc2)C(=O)O1 (stereo not shown)
LD50: > 2000 mg/kg

Continue with the compound presented below.
Task: Identify LD50 associated with the compound CNCC1CN(c2ccc(OCc3ccc(F)cc3)cc2)C(=O)O1 (stereo not shown)
Result: > 2000 mg/kg
